# credit: ChEMBL document CHEMBL1153387

- System: Serum
- testName: Metabolic stability in rat serum assessed as compound degradation rate at 1 mM by MALDI-TOF mass spectrometry assay
- Format: ADME, cell-free
- conditionDetails: 1000 µM
Non-standard residues stand in square brackets, D forms with d. Residues, ends and D or L forms follow the SMILES beside them. *: point of attachment. Pentanoyl(5-guanidino) = NC(N)=NCCCCC(=O)*; Tle = CC(C)(C)[C@H](N)C(=O)O; X3 = C[C@](N)(CCCCN)CC(=O)*
Lab note: compare Activity against 2 µmol/min. Equal or greater, write condition met. Smaller, write condition not met.

Here are 4 compounds together with their reported answers.
{"compound": "CC(=O)N[C@@H](CCCNC(=N)N)C(=O)N[C@@H](CCCCN)C(=O)N1CCC[C@H]1C(=O)N[C@@H](Cc1c[nH]c2ccccc12)C(=O)N[C@H](C(=O)N[C@@H](CC(C)C)C(=O)O)C(C)(C)C (Ac-RKPW[Tle]L-OH)", "labelClass": "condition not met"}
{"compound": "CC(C)C[C@H](NC(=O)[C@@H](NC(=O)[C@H](Cc1ccc(O)cc1)NC(=O)[C@@H]1CCCN1C(=O)[C@H](CCCNC(=N)N)NC(=O)C[C@@](C)(N)CCCCN)C(C)(C)C)C(=O)O (X3-RPY[Tle]L-OH)", "labelClass": "condition not met"}
{"compound": "CC(C)C[C@H](NC(=O)[C@@H](NC(=O)[C@H](Cc1c[nH]c2ccccc12)NC(=O)[C@@H]1CCCN1C(=O)[C@H](CCCCN)NC(=O)CCCCNC(=N)N)C(C)(C)C)C(=O)O ({Pentanoyl(5-guanidino)}-KPW[Tle]L-OH)", "labelClass": "condition not met"}
{"compound": "CC[C@@H](C)[C@H](NC(=O)[C@H](Cc1ccc(O)cc1)NC(=O)[C@@H]1CCCN1C(=O)[C@H](CCCNC(=N)N)NC(=O)CCCCNC(=N)N)C(=O)N[C@@H](CC(C)C)C(=O)O", "labelClass": "condition met"}

Problem: Is Activity at least 2 µmol/min? Consider "CC[C@@H](C)[C@H](NC(=O)[C@H](Cc1ccc(O)cc1)NC(=O)[C@@H]1CCCN1C(=O)[C@H](CCCNC(=N)N)NC(=O)[C@H](CCCNC(=N)N)NC)C(=O)N[C@@H](CC(C)C)C(=O)O"
Result: condition not met
